Exercise: for every item that follows, state its recorded pIC50.
# System: MCF7
# protocol description: Cytotoxicity against human MCF7 cells after 72 hrs by SRB assay
# Type: functional, cell-based
# stated conditions: MCF7, 72 h
Hey, just a heads up that pIC50 is the negative log base 10 of the concentration in molar.

# pIC50 (molecule: `CCS(=O)(=O)Nc1cc(-c2ccc3ncnc(Nc4cccc(C(=O)OC)c4)c3c2)cnc1OC` ) is 5.00

// sample `CCS(=O)(=O)Nc1cc(-c2ccc3ncnc(Nc4ccc(OC)nc4)c3c2)cnc1OC` , its pIC50 was 5.42

Reported pIC50 for `CCS(=O)(=O)Nc1cc(-c2ccc3ncnc(Nc4ccc(F)cc4)c3c2)cnc1OC` was 5.19

For `CCS(=O)(=O)Nc1cc(-c2ccc3ncnc(Nc4cccc(F)c4)c3c2)cnc1OC` the molecule record lists pIC50 as 5.10

`CCS(=O)(=O)Nc1cc(-c2ccc3ncnc(Nc4ccc(F)c(Cl)c4)c3c2)cnc1OC` yielded pIC50 of 5.25

pIC50 for `CCS(=O)(=O)Nc1cc(-c2ccc3ncnc(Nc4ccc(Cl)c(C(=O)OC)c4)c3c2)cnc1OC` is 5.84
